# procedure details: optical density change of DRC41 E. coli – strain DRC41, OD650, 24 h, E. coli filamentation project, primary screen (AID 1093);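 further: MC1000 strain lacking acrAB efflux and sulA so SOS filamentation is blocked; test concentration not given here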
# assay conditions: E. coli DRC41 growth, higher = more signal, called active from +8 up or from −8 down
Categories are assigned from the measured z-score using these intervals: low group: < -0.2; middle group: ≥ -0.2 and < 0.5; high group: ≥ 0.5

-- ask Lab log: CC1CC/C=C\[C@H]2OC34C=CCN(CCN5CCOCC5)C(=O)[C@H]3N(CCCCCO)C(=O)[C@@H]4C2C(=O)O1 (stereo not given in full) — assign z-score category
-- reply low group

-- ask Pick a category. Item: "O=C(NCC(F)(F)F)[C@@H]1c2ccccc2C(=O)N(Cc2ccccc2)[C@H]1c1ccc(CO)cc1"
-- reply high group

-- ask Category lookup for the compound "[N-]=[N+]=Nc1ccccc1[C@H]1OC(c2ccc(OCCCO)cc2)=N[C@@]1(CCS(=O)(=O)c1ccccc1)C(=O)N1CCOCC1"
-- reply high group

-- ask Textbook exercise: identify the category of the compound given here, O=C1NC(=O)C2C1C=CC(C(O)c1cccs1)N2Nc1ccccn1 (stereo not given) , according to its measured value.
-- reply low group

-- ask For this compound, which bin applies? "O=c1cccc(-c2cccc3ccccc23)o1"
-- reply high group

-- ask Entry "COC(=O)[C@@]1(Cc2ccc(OC)cc2)[C@H]2c3cc(C(=O)N4CCCC4)n(CCN4CCOCC4)c3C[C@H]2CN1C(=O)c1ccccc1" belongs to which category?
-- reply low group

-- ask Which z-score band matches C=CCC(OC(C)=O)[C@@H]1[C@@H](N(Cc2cc3ccccc3o2)C(=O)c2ccc(-c3ccccc3)cc2)c2cc(OCCCO)ccc2N1C(=O)Cc1ccc2ccccc2c1 (stereo not given in full) ?
-- reply middle group

-- ask Which class holds "O=C1O[C@@H](c2ccccc2)[C@@H](c2ccccc2)N2[C@@H](c3ccccc3OCCO)[C@]3(C(=O)Nc4ccc(C#CC5(O)CCCCCC5)cc43)[C@@H](C(=O)NC[C@H](O)c3ccccc3)[C@H]12" ?
-- reply low group

-- ask Given "O=C(NCc1ccccc1)[C@@H]1c2ccccc2C(=O)N(Cc2cc(F)cc(C(F)(F)F)c2)[C@H]1c1ccc(CO)cc1" , name the class its z-score places it in.
-- reply middle group

-- ask Class label required: "C=C(CCCC)C(=O)CC[C@@H](OC(=O)c1ccccc1-c1ccccc1C(=O)O)c1ccc(CO)o1"
-- reply middle group

-- ask Band assignment needed for "C/C=C/[C@H](CCn1cc([C@H](O)c2ccccc2)nn1)[Si](C)(C)c1ccc(OC)cc1" please.
-- reply middle group

-- ask Note: place this compound into its band. Item: "CO[C@H]1O[C@H](CO)[C@@H](OC(=O)Nc2ccccc2-c2ccccc2)[C@H](OC(=O)Nc2ccccc2-c2ccccc2)[C@H]1OC(=O)Nc1ccccc1-c1ccccc1"
-- reply high group

-- ask Each compound maps to one class by z-score. Which class for CCOC(=O)N1C(c2ccc(OCCCO)cc2)=NC(C(=O)OC)N1C(=O)OCC (stereo not given) ?
-- reply high group

-- ask Could you place C=CCC(OC(C)=O)[C@@H]1[C@@H](N(Cc2cc3ccccc3o2)C(=O)c2cccc3ccccc23)c2cc(OCCCO)ccc2N1C(=O)Cc1ccc(OC)cc1 (stereo not given in full) in its proper category? Many thanks.
-- reply low group

-- ask Each compound maps to one class by z-score. Which class for "COC(=O)[C@@]1(Cc2ccc(F)cc2)[C@H]2c3cc(C(=O)N(C)C)n(CCc4c[nH]c5ccc(OC)cc45)c3C[C@H]2CN1C(=O)c1ccccc1" ?
-- reply low group

----------
So I've got a bunch of compounds here, and I need their z-score values.
# procedure details: S6 kinase pathway phospho-S6 level changes – cell-based, A549, cytoblot, luminescence, serum-stimulated, primary screen (AID 1158);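 further: serum-stimulated A549 lung adenocarcinoma cells; signal is phosphorylated S6 detected by cytoblot immunostaining with HRP secondary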
# assay conditions: 5 h, higher = more signal
Returns: the value as a bare number; no unit string appended.

-- ask Would you kindly share the measured z-score for "COc1ccccc1CN1C(=O)c2ccccc2[C@](Cc2ccccc2I)(C(=O)NCc2ccccc2)[C@@H]1c1ccc(CO)cc1" ?
-- reply -0.266

-- ask What value of z-score has been recorded for this entry: "O=C1O[C@H](c2ccccc2)[C@H](c2ccccc2)N2[C@H]1[C@@H](C(=O)Nc1nc3ccccc3s1)[C@]1(C(=O)Nc3ccc(C#CC4=CCCCC4)cc31)[C@H]2c1ccc(OCCO)cc1"
-- reply -0.686

-- ask What measured z-score goes with CC1CC/C=C\[C@H]2OC34C=CCN(CCN5CCOCC5)C(=O)[C@H]3N(CCCCCO)C(=O)[C@@H]4C2C(=O)O1 (some centres undefined) ?
-- reply 0.165

-- ask Please give the measured z-score for this compound: "CCCCC(=O)N(Cc1ccccc1F)[C@@H]1CC(C(=O)NCCO)=C[C@H](Oc2c(I)cc(CO)cc2OC)[C@H]1O"
-- reply 0.245

----------
# system under test: Homeobox protein Hox-A13 (Mus musculus) (UniProt Q62424)
# Sequence (Q62424 whole entry, looked up): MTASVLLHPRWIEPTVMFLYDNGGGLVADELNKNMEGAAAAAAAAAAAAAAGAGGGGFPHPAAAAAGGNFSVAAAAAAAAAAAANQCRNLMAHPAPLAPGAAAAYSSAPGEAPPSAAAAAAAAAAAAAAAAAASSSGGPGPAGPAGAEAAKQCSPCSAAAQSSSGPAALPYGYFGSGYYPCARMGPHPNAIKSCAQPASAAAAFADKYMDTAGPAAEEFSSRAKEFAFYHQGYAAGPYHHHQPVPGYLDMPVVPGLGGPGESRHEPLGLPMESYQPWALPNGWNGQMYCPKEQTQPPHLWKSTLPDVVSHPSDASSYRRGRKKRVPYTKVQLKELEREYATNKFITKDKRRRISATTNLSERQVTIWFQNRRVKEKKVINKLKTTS
# procedure details: disruptors of Hoxa13 oligonucleotide interaction – biochemical, fluorescence polarization, labeled oligonucleotide, primary screen (AID 1185)
# assay conditions: Hoxa13:DNA binding, 15 min, called active from +8 up or from −8 down
The source made the active and inactive calls.
Pick one: 1 (active), 0 (inactive)

-- ask Please state the recorded outcome for this compound: "COC(=O)C(CC#Cc1ccc2c(c1)[C@]1(C(=O)N2)[C@H](C(=O)N2CCCCCCC2)[C@H]2C(=O)O[C@H](c3ccccc3)[C@H](c3ccccc3)N2[C@@H]1c1ccccc1OCCO)C(=O)OC"
-- reply 0

-- ask Would you mind telling me which call this test gave COc1cc2c(cc1O)C(c1ccc(CN3CCCC3)cc1)N(Cc1sc3ccccc3c1Cl)CC2 (configuration not stated) ?
-- reply 0

-- ask Which outcome was entered for the compound "C=CCOC(=O)[C@H]1[C@@H]2C(=O)O[C@@H](c3ccccc3)[C@@H](c3ccccc3)N2[C@@H](c2ccc(OCCOC(=O)[C@@H]3C[C@@H]4C(=O)NCC(=O)N4[C@@H]3c3ccc(O)cc3)cc2)[C@]12C(=O)Nc1ccc(I)cc12" in this test?
-- reply 0

-- ask # lookup: test call for "O=C(NCC(F)(F)F)[C@@H]1c2ccccc2C(=O)N(Cc2ccccc2)[C@H]1c1ccc(CO)cc1"
-- reply 0

-- ask What classification did "CN(C)CCCC[C@@H]1NC(=O)[C@@H]2C[C@H](C(=O)NCCCCCCN)[C@H](c3ccc(O)cc3)N2C1=O" end up with in this test?
-- reply 0

-- ask Tell me the recorded outcome of this test for "COC(=O)[C@@]1(Cc2ccc(F)cc2)[C@H]2c3cc(C(=O)N4CCCC4)n(Cc4ccc(Cl)c(C(F)(F)F)c4)c3C[C@H]2CN1C(=O)c1ccccc1" .
-- reply 0

-- ask Which outcome was entered for the compound "COCCOC(=O)N1C(=O)[C@@]2(c3cc(C#CCCO)ccc31)[C@H](C(=O)NC[C@H](O)c1ccccc1)[C@H]1C(=O)O[C@H](c3ccccc3)[C@H](c3ccccc3)N1[C@@H]2c1ccc(OCCO)cc1" in this test?
-- reply 0

-- ask # lookup: test call for "COc1ccc([Si](C)(C)[C@H]2[C@H](CC(=O)N(CCO)Cc3ccccc3)O[C@@]3(C(=O)N(Cc4cccc(N5C(=O)c6cccc7cccc5c67)c4)c4ccccc43)[C@@H]2C)cc1"
-- reply 0

-- ask Assay result, entry "COCCOC(=O)N1C(=O)[C@@]2(c3cc(C#CC4(O)CCCCCC4)ccc31)[C@H](c1ccc(O)cc1)N1[C@H](c3ccccc3)[C@H](c3ccccc3)OC(=O)[C@H]1[C@@H]2C(=O)N1CCc2cc(OC)c(OC)cc2C1" — outcome?
-- reply 0

-- ask GET /call?item= "O=C1O[C@H](c2ccccc2)[C@H](c2ccccc2)N2[C@H]1[C@@H](C(=O)Nc1nc3ccccc3s1)[C@]1(C(=O)Nc3ccc(C#CC4=CCCCC4)cc31)[C@H]2c1ccc(OCCO)cc1" returns the recorded outcome of this test.
-- reply 1

-- ask Entry CC(C)(C)OC(=O)CC[C@]1(C(=O)NCC(O)CO)N=C(c2ccc(OCCCO)cc2)O[C@H]1c1ccccc1CN=[N+]=[N-] (some centres not stated) : call = ?
-- reply 0

-- ask In this assay, the call recorded for O=P(NCC1(CC2(c3ccccc3)CO2)CC1)(c1ccccc1)c1ccccc1 (configuration not stated) was what?
-- reply 0

----------
# procedure details: JC-1 mitochondrial potential readout, lung cancer cells – cell-based, A549, JC-1 fluorescence, basal, 24 h, 100 nL, profiling panel (AID 1138);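 further: A549 lung adenocarcinoma cells under basal conditions with no added stimulus; test concentration not given here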
# assay conditions: higher = more signal
Label true when z-score is at or above 0.1; anything below gets false.

-- ask Please check the record CCCCN1CC=CC23O[C@@H]4/C=C\CCCOC(=O)C4[C@H]2C(=O)N(C(C)CO)[C@@H]3C1=O (stereo partly drawn) and state if its z-score is at or above 0.1.
-- reply true

-- ask Form field: z-score at least 0.1? Entry: CC1CC/C=C\[C@H]2OC34C=CCN(CCN5CCOCC5)C(=O)[C@H]3N(CCCCCO)C(=O)[C@@H]4C2C(=O)O1 (stereo partly drawn)
-- reply false

-- ask Is it the case that "O=C1O[C@@H](c2ccccc2)[C@@H](c2ccccc2)N2[C@@H](c3ccc(O)cc3)[C@]3(C(=O)Nc4ccccc43)[C@@H](C(=O)NC[C@H](O)c3ccccc3)[C@H]12" has z-score reaching or exceeding 0.1?
-- reply true

-- ask Check the entry "C=C(C(=O)CC[C@@H](OC(C)=O)c1ccc(OCCO)cc1)C(C)C" : does z-score equal or exceed 0.1?
-- reply false

-- ask Can "C=CC[C@@]1(C(=O)NCCN2CCOCC2)N=C(c2ccc(OCCCO)cc2)O[C@@H]1c1ccccc1CN=[N+]=[N-]" be said to have z-score at or above 0.1?
-- reply true

-- ask Determine whether this compound has z-score no lower than 0.1: "CC(C)[C@H]1COC(=O)N1C(=O)[C@H]1[C@@H](c2ccccc2)N(c2ccccc2)O[C@@H]1C"
-- reply true

-- ask Is reported z-score greater than or equal to 0.1 here: COc1cc(NN2C(C(O)c3ccccc3)C=CC3C(=O)N(c4ccccc4)C(=O)C32)cc(OC)c1OC (stereo not drawn)
-- reply true

-- ask Hi, just wondering whether "C=C[C@H](C)[C@H](O)c1ccc(OCCO)cc1" shows z-score of 0.1 or higher.
-- reply true
